Each recorded value in this set is attributed to ChEMBL document CHEMBL4152194.

system: Cryptococcus neoformans; experiment: Antifungal activity against Cryptococcus neoformans ATCC 24067 after 72 hrs by microbroth dilution assay; assay type: functional; conditions: ATCC 24067, 72 h
recorded.metric: MIC

Required: MIC, one value per compound below.
1. CC(C)(C)/C=N/NC(N)=S
2. C/C(=N\Nc1nc(-c2ccc(Cl)cc2)cs1)c1ccc(N)cc1

1: > 250 µM; 2: > 250 µM

Can you give me MIC for all of these, one by one?
1. COc1cc(/C=C/C(C)=N/Nc2nc(-c3ccc(Cl)cc3)cs2)ccc1O
2. Clc1ccc(-c2csc(N/N=C/C=C/c3ccccc3)n2)cc1
3. COc1cc(/C=C/C(C)=N/NC(N)=S)ccc1O
4. C[C@@H]1[C@H](O)[C@@H](C)/C=C/C=C/C=C/C=C/C=C/C=C/C=C/[C@H](O[C@@H]2O[C@H](C)[C@@H](O)[C@H](N)[C@@H]2O)C[C@@H]2O[C@](O)(C[C@@H](O)C[C@@H](O)[C@H](O)CC[C@@H](O)C[C@@H](O)CC(=O)O[C@H]1C)C[C@H](O)[C@H]2C(=O)O [AMPHOTERICIN B]
5. CCC/C(CC)=N/NC(N)=S

["250 µM", "> 250 µM", "> 250 µM", "0.09 µM", "> 250 µM"]

* * *

Provide the recorded log10 of MIC for the entries that follow.
tested on: Cryptococcus bacillisporus; test: Antifungal activity against Cryptococcus gattii ATCC 32608 after 72 hrs by microbroth dilution assay; format: functional; settings: ATCC 32608, 72 h
Note the log scale: values are log10 of MIC expressed in µM.

// known answers, use as guide
C[C@@H]1[C@H](O)[C@@H](C)/C=C/C=C/C=C/C=C/C=C/C=C/C=C/[C@H](O[C@@H]2O[C@H](C)[C@@H](O)[C@H](N)[C@@H]2O)C[C@@H]2O[C@](O)(C[C@@H](O)C[C@@H](O)[C@H](O)CC[C@@H](O)C[C@@H](O)CC(=O)O[C@H]1C)C[C@H](O)[C@H]2C(=O)O [AMPHOTERICIN B] | -1.10
CCC(C)n1ncn(-c2ccc(N3CCN(c4ccc(OCC5COC(Cn6cncn6)(c6ccc(Cl)cc6Cl)O5)cc4)CC3)cc2)c1=O (configuration not stated) [ITRACONAZOLE] | -0.74
CC(C)(C)/C=N/Nc1nc(-c2ccccc2)cs1 | 0.28
COc1ccc(-c2csc(N/N=C(C)/C=C/c3ccc(O)c(OC)c3)n2)cc1 | 2.40

Quick one: give me log10 of MIC for each item below, same order please.
1. COc1cc(/C=C/C(C)=N/Nc2nc(-c3ccccc3)cs2)ccc1O
2. COc1cc(/C=C/C(C)=N/Nc2nc(-c3ccc(Cl)cc3)cs2)ccc1O
3. OC(Cn1cncn1)(Cn1cncn1)c1ccc(F)cc1F [FLUCONAZOLE]

1: 2.40; 2: 2.10; 3: 1.10

* * *

Provide the reported MIC of each item.
tested on: Candida parapsilosis; assay: Antifungal activity against Candida parapsilosis ATCC 22019 after 48 hrs by microbroth dilution assay; type: functional; settings: Lodderomyces parapsilosis, ATCC 22019, 48 h

// known answers, use as guide
COc1cc(/C=C/C(C)=N/NC(N)=S)ccc1O | > 250 µM
CC(C)(C)/C=N/Nc1nc(-c2ccccc2)cs1 | 3.9 µM

Hi! Can you tell me MIC for each of these compounds?
1. Clc1ccc(-c2csc(N/N=C/C=C/c3ccccc3)n2)cc1
2. OC(Cn1cncn1)(Cn1cncn1)c1ccc(F)cc1F
3. C/C(=N\Nc1nc(-c2ccc(Cl)cc2)cs1)c1ccc(N)cc1
4. C[C@@H]1[C@H](O)[C@@H](C)/C=C/C=C/C=C/C=C/C=C/C=C/C=C/[C@H](O[C@@H]2O[C@H](C)[C@@H](O)[C@H](N)[C@@H]2O)C[C@@H]2O[C@](O)(C[C@@H](O)C[C@@H](O)[C@H](O)CC[C@@H](O)C[C@@H](O)CC(=O)O[C@H]1C)C[C@H](O)[C@H]2C(=O)O
5. CCC/C(CC)=N/NC(N)=S
6. CC(C)(C)/C=N/NC(N)=S

> 250 µM
3.2 µM
> 250 µM
0.5 µM
> 250 µM
> 250 µM
